Source of measurements: patent US7932270B2

TESTED SYSTEM: chicken gizzard smooth muscle myosin subfragment-1 chemically crosslinked to cardiac or skeletal actin (Gallus gallus)
IC50 for assorted molecules
Mention the unit after the number when you answer.

Below are worked cases with known answers.
{"MOLECULE": "O=C(NCc1cccnc1)c1ccc(-c2ccccc2)nc1NCCc1ccccc1O", "ASSAY READOUT": "IC50", "RECORDED VALUE": "2430 nM"}
{"MOLECULE": "N#Cc1ccccc1-c1ccc(C(=O)NCC2CCN(C(=O)CN)C2)c(NCCc2cccc(F)c2)n1 (stereo not shown)", "ASSAY READOUT": "IC50", "RECORDED VALUE": "203 nM"}

Noted for `CC(=O)N1CCN(c2ccc(CNC(=O)c3ccc(-c4ccccc4C#N)nc3NCCc3cccc(F)c3)cn2)CC1` : its IC50 reads 7750 nM
